B1: HDV Ribozyme (parent)
chain: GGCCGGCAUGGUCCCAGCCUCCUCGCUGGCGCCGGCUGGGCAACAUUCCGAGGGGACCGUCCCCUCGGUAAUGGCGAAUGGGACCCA

# Variants of: B1
# Test: self-cleavage, relative activity (ratio to wild type); higher = more cleavage; co-transcriptional
Decide using self-cleavage: a value greater than or equal to 0.4 is 1, a smaller one is -1.

Sequence code: GGCCGGAAUGGUCCCAGCCUCCUCGCUGGCGCCUGCUGGGCAACAUUCCGAGGGGACCGUCCCCUCGGUAAUGGCGAAUGGGACCCA [C7A G34U]
Classification: -1

Sequence code: GGCCGGCAUGGUCCCAGCCUCCUCGCUGGCGCCGGCUGGGCAACAUUCCGAGGGGACCGUCCCCUCGGUAAUGGCGGAUGGGCCCCA [A77G A83C]
Classification: -1

Sequence code: GGCCGGCAUGGUCCCAGCCUCCUCGCUGGCGCCGGCUGGGCAACAUUCCGAGGGGACCGUCUCCUCGGUAAUGGCGAAUGGGACGCA [C62U C85G]
Classification: 1

Sequence code: GGCCGGCAUGUUCCCAGCCUCCUCGCUGGCGCCGGCUGGGCAACAGUCCGAGGGGACCGUCCCCUCGGUAAUGGCGAAUGGGACCCA [G11U U46G]
Classification: -1

Sequence code: GGCCGGCAUGGUCCCAGCCUCCUCGCUGGCGCCGGCUGGGCAACAUUCCGAGGGGACCGUCCCCUUGGUAAUGGCGAAUGGAACCCA [C66U G82A]
Classification: 1

Sequence code: GGCCGGCAUGGACCCAGCCUCCUCGCUGGCGCCGGCUGGGCAACAUUCCGAGGGGACCGUCCCCUCGGUAAUGGCGAAUGGGAGCCA [U12A C84G]
Classification: 1

Sequence code: GGCCGGCAUGGUCCCAGCCUCCUCGCUGGCGCCGGCUGGGCAACAUUCCGAUGGGACCGUCCCCUCGGUAAUGGCGAAAGGGACCCA [G52U U79A]
Classification: 1

Sequence code: GGCCGGCAUGGUCCCACCCUCCUCGCUAGCGCCGGCUGGGCAACAUUCCGAGGGGACCGUCCCCUCGGUAAUGGCGAAUGGGACCCA [G17C G28A]
Classification: -1

Sequence code: GGACGGCAUGGUCCCAGCCUCCUCGCUGGCGCCGGCUGGGCAACAUUCGGAGGGGACCGUCCCCUCGGUAAUGGCGAAUGGGACCCA [C3A C49G]
Classification: 1

Sequence code: GGCCGGCAUGGUCCCAGCCUCCCCGCUGUCGCCGGCUGGGCAACAUUCCGAGGGGACCGUCCCCUCGGUAAUGGCGAAUGGGACCCA [U23C G29U]
Classification: -1

Sequence code: GGCUGGCAUGGUCCCAGCCUCCUCGCUGGCUCCGGCUGGGCAACAUUCCGAGGGGACCGUCCCCUCGGUAAUGGCGAAUGGGACCCA [C4U G31U]
Classification: -1

Sequence code: GACCGGCAUGCUCCCAGCCUCCUCGCUGGCGCCGGCUGGGCAACAUUCCGAGGGGACCGUCCCCUCGGUAAUGGCGAAUGGGACCCA [G2A G11C]
Classification: -1

Sequence code: GGCCGGCAUGGUCCCAGCCUCCUCGCUGGCGCCGGCUGGGCAACAUUCCGAGGGGACCGUACCCUCGGUAAUAGCGAAUGGGACCCA [C61A G73A]
Classification: 1

Sequence code: GGCCGGCAUGGUCCCAGCCUCCUCGCUGGCGCCGGCUGGGCAACAUUCCGAGGGGACCGUCCCCUCGGUAAUAGCGAAAGGGACCCA [G73A U79A]
Classification: -1

Sequence code: GGCCGGCAUGGUCCCAGCCUGCUCGCUGGCGCCGGCUGGGCAACAUUCCGAGGGGACCGUCCCCUCGGUAAUGGCGAGUGGGACCCA [C21G A78G]
Classification: -1

Sequence code: GGCCGGCAUGGUCCCAGCCUCCUCGCUGGCGCCGGCUGGGGAACAUUCCGAGGGGACCGUCCCCUCGGUAAUGGCGAAUGGGUCCCA [C41G A83U]
Classification: 1

Sequence code: GGCCGGCAUGGUCCCAGCCUCCUCGCUGGCGCCGGCUGGGCAACAUUCCGAGGGGACCGUUCCCUCGGUCAUGGCGAAUGGGACCCA [C61U A70C]
Classification: 1

Sequence code: GGCCGGCAUGGUCCCAGCCUCCUCGCUGGCGCCGGCUGGGCUACAUUCAGAGGGGACCGUCCCCUCGGUAAUGGCGAAUGGGACCCA [A42U C49A]
Classification: 1

Sequence code: GGCCGGCAUGGUCCCAGCCUCCUCGCUGGCGUCGGCUGGGCAACAUUCCGAGGGGACCGUCCACUCGGUAAUGGCGAAUGGGACCCA [C32U C63A]
Classification: 1

Sequence code: GGCCGGCAUGGUCCCAGCAUCCUCGCUGGCGCAGGCUGGGCAACAUUCCGAGGGGACCGUCCCCUCGGUAAUGGCGAAUGGGACCCA [C19A C33A]
Classification: -1

Sequence code: GGCCGGCAUGGUCCCAGCCUCCUCGCUGGCGUCGGCUGGGCAACAUUCCGAGGGGCCCGUCCCCUCGGUAAUGGCGAAUGGGACCCA [C32U A56C]
Classification: 1

Sequence code: GGCCGGCAUGGUCCCAGCCUCCUCGCUGGCGCGGGCUGGGCUACAUUCCGAGGGGACCGUCCCCUCGGUAAUGGCGAAUGGGACCCA [C33G A42U]
Classification: -1

Sequence code: GGCCGGCAUGGUCCCAGCCUCCUCGCUGGCGCCGGCUGGUCAACAUUCCGAGGGGACCGUCCCCUCGUUAAUGGCGAAUGGGACCCA [G40U G68U]
Classification: 1

Sequence code: GGCCGGCAUGGUCCCAGCCUCCUCGCUGGCGCCGGCUGGGAAACAUUCCGAGGGGACCGUCCCCUCGGUAAUGGCGAAUGGGACCCG [C41A A87G]
Classification: 1

Sequence code: GGCAGGCAUGGUCCCAGCAUCCUCGCUGGCGCCGGCUGGGCAACAUUCCGAGGGGACCGUCCCCUCGGUAAUGGCGAAUGGGACCCA [C4A C19A]
Classification: -1

Sequence code: GGCCGGCAUGGUCCCAGCCUCCUCGCUGGCGCCGGCUGGCCAACAUUCCGAGGGGACCGUCCCAUCGGUAAUGGCGAAUGGGACCCA [G40C C64A]
Classification: -1

Sequence code: GGCCGGCAUGGUCCCAGCCUCCUCGCUGGCGCCGGCUGGGAACCAUUCCGAGGGGACCGUCCCCUCGGUAAUGGCGAAUGGGACCCA [C41A A43C]
Classification: 1

Sequence code: GGCCGGCAUGGUCCCAGCCUCCUCGCUGGCGCCGGCGGGGCAACAUUCCGAGGGGACCGUCCCCUCGGUAAUGGCGAAUGAGACCCA [U37G G81A]
Classification: -1

Sequence code: GGCCGGCAUGGUCCCAGCCUCAUCGCUCGCGCCGGCUGGGCAACAUUCCGAGGGGACCGUCCCCUCGGUAAUGGCGAAUGGGACCCA [C22A G28C]
Classification: -1

Sequence code: GGCCGGCAUGGUCCCAGCCUCCUCGCUGGCGCCGGAUGGGCAACAUUCCGAGGGGACCGUCCCCUCGGUAAUGGCGAAUGGGACCCU [C36A A87U]
Classification: -1

Sequence code: GGCCGGCAUGGUCCCAGCCUCCUCGCUGGCGCCGGCUGGGCAACAUUCCGGGGGGACUGUCCCCUCGGUAAUGGCGAAUGGGACCCA [A51G C58U]
Classification: 1

Sequence code: GGCCGGCAUGGUCCCAGCCUCCUCGCUGGCGCCGGCUGGGCAACAUUCCGAGGGGGCCGUCCCCUCGGUAAUGGAGAAUGGGACCCA [A56G C75A]
Classification: -1

Sequence code: GGCCGGCAUGGUCCCAGCCUCCUCGCUGGCGCCAGCUGGGCAACAUUCCGAGGGGACCGUCCCCUCAGUAAUGGCGAAUGGGACCCA [G34A G67A]
Classification: -1

Sequence code: GGCCGGCAUGGUCCCAGCCUCCUCGCUGGCGCCGGCUGGGCAACAUUCCGAGUGGACCGUCCCCUCGGUAACGGCGAAUGGGACCCA [G53U U72C]
Classification: 1

Sequence code: GGCCAGCAUGGUCCCAGCCUCCUCGCUGGCGCCGGCUGGGCAACAUUCCGAGGGGACCGUCCCCUCGGUAAUAGCGAAUGGGACCCA [G5A G73A]
Classification: -1

Sequence code: GGCCGGUAUGGUCCCUGCCUCCUCGCUGGCGCCGGCUGGGCAACAUUCCGAGGGGACCGUCCCCUCGGUAAUGGCGAAUGGGACCCA [C7U A16U]
Classification: 1

Sequence code: GGCAGGCAUGGUCCCAGCCUCCUCGCUGGCGCCGGCUGGGCAACAUUCCGAGGGGACCGUCCCCUCGGUAAUGGCGAAUGGCACCCA [C4A G82C]
Classification: -1

Sequence code: GGCCGGCAUGGUCCCAGCCUCCUCGCUGGUGCCUGCUGGGCAACAUUCCGAGGGGACCGUCCCCUCGGUAAUGGCGAAUGGGACCCA [C30U G34U]
Classification: -1

Sequence code: GGCCGGCAUGGUCCCAGCCUCCUCGCUGGCGCCGGCUGGGCAACAUUCCGAGGGGACCGUCCCCUCGGUAAUGGCGUAUGGGUCCCA [A77U A83U]
Classification: -1

Sequence code: GGCCGGCAUGGUCCCAGCCUCAUCGCUGGCGCCAGCUGGGCAACAUUCCGAGGGGACCGUCCCCUCGGUAAUGGCGAAUGGGACCCA [C22A G34A]
Classification: -1

Sequence code: GGCCGGCAUGGUCCCCGCCUCCUCGCUGGCGCCGGCUGGGCAACAUUCCGAGGGGACCGUCCCCUCGGUAAUUGCGAAUGGGACCCA [A16C G73U]
Classification: -1

Sequence code: GGCCGGCAUGGUCCCAGCCUCCUCGCUGGCGCCGGCUGGGCAACAUUCCGAGGGGACGGACCCCUCGGUAAUGGCGAAUGGGACCCA [C58G U60A]
Classification: 1

Sequence code: GGCCGGCAUGGUCCCAGCCUCCUCGCUGGCGCCGGCUGGGCAACAUUCCGAGGGGACCGUCCCCUCGGUAAUGGGGAAUGGGUCCCA [C75G A83U]
Classification: -1

Sequence code: GGCCGGGAUGGUCCCAGCCUCCUCGCUGGCGCCGGCUGGGCAACAUUCCGAGGGGACCGUCCCCUCGGUAAUCGCGAAUGGGACCCA [C7G G73C]
Classification: -1

Sequence code: GGCCGGCAUGGUCCCAGCCUCCUCGCUGGCGCCUGCUGGGCAACAAUCCGAGGGGACCGUCCCCUCGGUAAUGGCGAAUGGGACCCA [G34U U46A]
Classification: -1
